Attribution: patent US20240034783A1

target.desc: T1, human CLDN18.2 (human)
T1 construct: also called huCLDN18.2; hCLDN18.2
experiment.description: flow cytometry titration, PA-TU-8988S-High cells
Threshold-based label: EC50 under 2 µg/mL gives criterion met, EC50 not under 2 µg/mL gives criterion not met.

Solved entries (count: 5):
>  <binder>
hCl1h (antibody, human IgG1, kappa, V domains shown, Humanized) VH: QVQLVQSGAEVKKPGASVKVSCKASGYTFTDYAMYWVRQAPGQRLEWMGWINAYTGKPTYAQKFQGRVTITRDTSASTAYMELSSLRSEDTAVYYCARAVYYGYTMDAWGQGTLVTVSS VL: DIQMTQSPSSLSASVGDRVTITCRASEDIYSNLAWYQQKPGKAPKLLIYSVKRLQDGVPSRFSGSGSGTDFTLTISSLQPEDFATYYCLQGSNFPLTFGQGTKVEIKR

>  <assigned.category>
criterion met

$$$$
>  <binder>
hCl1d (antibody, human IgG1, kappa, V domains shown, Humanized) VH: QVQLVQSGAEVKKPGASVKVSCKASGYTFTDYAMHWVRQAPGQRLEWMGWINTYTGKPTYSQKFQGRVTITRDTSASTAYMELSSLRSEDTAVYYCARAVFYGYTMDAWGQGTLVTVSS VL: DIQMTQSPSSLSASVGDRVTITCRTSEDIYSNFAWYQQKPGKAPKLLIYSVNRLQDGVPSRFSGSGSGTDFTLTISSLQPEDFATYYCLQGSKFPLTFGQGTKVEIKR

>  <assigned.category>
criterion met

$$$$
>  <binder>
hCl1e (antibody, human IgG1, kappa, V domains shown, Humanized) VH: QVQLVQSGAEVKKPGASVKVSCKASGYTFTDYAMYWVRQAPGQRLEWMGWINTYTGKPTYAQKFQGRVTITRDTSASTAYMELSSLRSEDTAVYYCARAVFYGYTMDAWGQGTLVTVSS VL: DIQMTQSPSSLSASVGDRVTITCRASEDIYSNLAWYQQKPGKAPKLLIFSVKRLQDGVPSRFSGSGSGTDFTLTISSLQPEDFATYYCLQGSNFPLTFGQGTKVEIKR

>  <assigned.category>
criterion not met

$$$$
>  <binder>
hCl1c (antibody, human IgG1, kappa, V domains shown, Humanized) VH: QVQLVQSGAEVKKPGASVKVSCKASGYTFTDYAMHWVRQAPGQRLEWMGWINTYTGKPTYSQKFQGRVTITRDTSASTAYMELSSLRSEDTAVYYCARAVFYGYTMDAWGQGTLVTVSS VL: DIQMTQSPSSLSASVGDRVTITCRTSEDIYSNLAWYQQKPGKAPKLLIFAIKRLQDGVPSRFSGSGSGTDFTLTISSLQPEDFATYYCLQGSKFPLTFGQGTKVEIKR

>  <assigned.category>
criterion met

$$$$
>  <binder>
hCl1g (antibody, human IgG1, kappa, V domains shown, Humanized) VH: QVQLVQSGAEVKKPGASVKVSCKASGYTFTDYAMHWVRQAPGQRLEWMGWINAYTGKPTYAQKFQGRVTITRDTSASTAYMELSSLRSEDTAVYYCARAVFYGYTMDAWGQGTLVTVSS VL: DIQMTQSPSSLSASVGDRVTITCRTSEDIYSNFAWYQQKPGKAPKLLIYSVNRLQDGVPSRFSGSGSGTDFTLTISSLQPEDFATYYCLQGSKFPLTFGQGTKVEIKR

>  <assigned.category>
criterion met

$$$$

Regarding hCl1a (antibody, human IgG1, kappa, V domains shown, Humanized) VH: QVQLVQSGAEVKKPGASVKVSCKASGYTFTDYAMHWVRQAPGQRLEWMGWINTYTGKPTYAQKFQGRVTITRDTSASTAYMELSSLRSEDTAVYYCARAVFYGYTMDAWGQGTLVTVSS VL: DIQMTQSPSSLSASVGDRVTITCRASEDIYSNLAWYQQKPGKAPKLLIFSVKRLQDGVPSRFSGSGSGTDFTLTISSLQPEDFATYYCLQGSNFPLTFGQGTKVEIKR , kindly confirm whether its EC50 is beneath 2 µg/mL.
criterion not met

Now the same for hCl1f (antibody, human IgG1, kappa, V domains shown, Humanized) VH: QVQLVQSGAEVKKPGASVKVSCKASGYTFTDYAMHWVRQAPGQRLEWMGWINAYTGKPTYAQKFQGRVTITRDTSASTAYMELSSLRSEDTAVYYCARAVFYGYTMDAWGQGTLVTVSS VL: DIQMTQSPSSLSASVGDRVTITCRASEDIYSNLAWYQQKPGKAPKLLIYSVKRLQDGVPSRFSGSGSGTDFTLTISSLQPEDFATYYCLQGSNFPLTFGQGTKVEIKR
criterion not met

Now the same for IMAB362 (antibody, human IgG1, kappa, V domains shown, Control, chimeric IgG1, synthesized from the published chains; also called Claudiximab; Zolbetuximab) VH: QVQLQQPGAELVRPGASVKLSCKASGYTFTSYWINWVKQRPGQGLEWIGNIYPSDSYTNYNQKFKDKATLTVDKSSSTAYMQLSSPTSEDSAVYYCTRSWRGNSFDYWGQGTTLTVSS VL: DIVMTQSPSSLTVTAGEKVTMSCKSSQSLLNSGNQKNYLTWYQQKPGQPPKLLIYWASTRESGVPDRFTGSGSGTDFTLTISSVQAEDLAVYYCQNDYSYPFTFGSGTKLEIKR
criterion met

Now the same for hCl1j (antibody, human IgG1, kappa, V domains shown, Humanized) VH: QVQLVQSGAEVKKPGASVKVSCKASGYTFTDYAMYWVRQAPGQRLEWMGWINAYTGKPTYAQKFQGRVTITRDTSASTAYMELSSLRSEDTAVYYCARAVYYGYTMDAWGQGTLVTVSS VL: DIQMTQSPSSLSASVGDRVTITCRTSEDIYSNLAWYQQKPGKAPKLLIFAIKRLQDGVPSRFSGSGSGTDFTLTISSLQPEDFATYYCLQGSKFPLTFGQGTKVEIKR
criterion met

Now the same for hCl1i (antibody, human IgG1, kappa, V domains shown, Humanized) VH: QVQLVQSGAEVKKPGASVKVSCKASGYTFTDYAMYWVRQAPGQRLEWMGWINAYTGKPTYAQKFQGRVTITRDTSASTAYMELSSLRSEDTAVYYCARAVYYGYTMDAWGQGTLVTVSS VL: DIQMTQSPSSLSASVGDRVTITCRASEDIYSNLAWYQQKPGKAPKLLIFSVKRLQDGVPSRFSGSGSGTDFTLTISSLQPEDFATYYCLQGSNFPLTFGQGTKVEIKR
criterion met
